The values you see were collected from ChEMBL document CHEMBL5346923.

test system: Proteus; test: Antibacterial activity against Proteus CMCC (B) 49027 assessed as inhibition of bacterial growth measured after 24 hrs by MH broth based assay; type: functional
Measured MIC by item
Reported Metric: MIC

1) C=C[C@]1(C)C[C@@H](OC(=O)CSc2cc[n+](CC(=O)NCCc3ccc(O)cc3)cc2)[C@]2(C)[C@H](C)CC[C@]3(CCC(=O)[C@H]32)[C@@H](C)[C@@H]1O.[I-]: > 64 µg/mL
2) C=C[C@]1(C)C[C@@H](OC(=O)CSc2cc[n+](Cc3ccc(-c4ccccc4C#N)cc3)cc2)[C@]2(C)[C@H](C)CC[C@]3(CCC(=O)[C@H]32)[C@@H](C)[C@@H]1O.[I-]: > 64 µg/mL
3) C=C[C@]1(C)C[C@@H](OC(=O)CSc2cc[n+](CC3CCCO3)cc2)[C@]2(C)[C@H](C)CC[C@]3(CCC(=O)[C@H]32)[C@@H](C)[C@@H]1O.[I-] (stereo partly drawn): > 64 µg/mL

====

system: Enterococcus; experiment: Antibacterial activity against vancomycin-resistant Enterococcus ATCC 700221 assessed as inhibition of bacterial growth measured after 24 hrs by MH broth based assay; assay type: functional
Reported Metric: MIC (µg/mL)

1. C=C[C@]1(C)C[C@@H](OC(=O)CSc2cc[n+](CCCCCCCC(=O)O)cc2)[C@]2(C)[C@H](C)CC[C@]3(CCC(=O)[C@H]32)[C@@H](C)[C@@H]1O.[I-]: 64
2. C=C[C@]1(C)C[C@@H](OC(=O)CSc2cc[n+](CCCC)cc2)[C@]2(C)[C@H](C)CC[C@]3(CCC(=O)[C@H]32)[C@@H](C)[C@@H]1O.[Br-]: 16
3. C#CC[n+]1ccc(SCC(=O)O[C@@H]2C[C@@](C)(C=C)[C@@H](O)[C@H](C)[C@]34CCC(=O)[C@H]3[C@@]2(C)[C@H](C)CC4)cc1.[I-]: 16
4. C=C[C@]1(C)C[C@@H](OC(=O)CSc2cc[n+](CCCO)cc2)[C@]2(C)[C@H](C)CC[C@]3(CCC(=O)[C@H]32)[C@@H](C)[C@@H]1O.[I-]: 64
5. C=C[C@]1(C)C[C@@H](OC(=O)CSc2cc[n+](COC)cc2)[C@]2(C)[C@H](C)CC[C@]3(CCC(=O)[C@H]32)[C@@H](C)[C@@H]1O.[I-]: 32
6. C=C[C@]1(C)C[C@@H](OC(=O)CSc2cc[n+](CC(=O)NCCc3ccc(O)cc3)cc2)[C@]2(C)[C@H](C)CC[C@]3(CCC(=O)[C@H]32)[C@@H](C)[C@@H]1O.[I-]: 64
7. C=C[C@]1(C)C[C@@H](OC(=O)CSc2cc[n+](CC(=O)N3CCCC3)cc2)[C@]2(C)[C@H](C)CC[C@]3(CCC(=O)[C@H]32)[C@@H](C)[C@@H]1O.[I-]: 64
8. C=C[C@]1(C)C[C@@H](OC(=O)CSc2cc[n+](CCCCCCC(=O)O)cc2)[C@]2(C)[C@H](C)CC[C@]3(CCC(=O)[C@H]32)[C@@H](C)[C@@H]1O.[I-]: 64
9. C=C[C@]1(C)C[C@@H](OC(=O)CSc2cc[n+](CC(=O)N(Cc3ccccc3)Cc3ccccc3)cc2)[C@]2(C)[C@H](C)CC[C@]3(CCC(=O)[C@H]32)[C@@H](C)[C@@H]1O.[I-]: 64
10. C=C[C@]1(C)C[C@@H](OC(=O)CSc2cc[n+](CCCCCCCCCCCC)cc2)[C@]2(C)[C@H](C)CC[C@]3(CCC(=O)[C@H]32)[C@@H](C)[C@@H]1O.[I-]: 16
11. C=C[C@]1(C)C[C@@H](OC(=O)CSc2cc[n+](CCCC)cc2)[C@]2(C)[C@H](C)CC[C@]3(CCC(=O)[C@H]32)[C@@H](C)[C@@H]1O.[I-]: 16
12. C=C[C@]1(C)C[C@@H](OC(=O)CSc2cc[n+](CCCCCCCCCC)cc2)[C@]2(C)[C@H](C)CC[C@]3(CCC(=O)[C@H]32)[C@@H](C)[C@@H]1O.[I-]: 4

====

test system: Proteus; assay: Antibacterial activity against Proteus CMCC (B) 49027 assessed as inhibition of bacterial growth measured after 24 hrs by MH broth based assay; format: functional
Reported Metric: MIC

1) C=C[C@]1(C)C[C@@H](OC(=O)CSc2cc[n+](CCC)cc2)[C@]2(C)[C@H](C)CC[C@]3(CCC(=O)[C@H]32)[C@@H](C)[C@@H]1O.[I-]: 64 µg/mL
2) C=C[C@]1(C)C[C@@H](OC(=O)CSc2cc[n+](Cc3ccc(OC)cc3)cc2)[C@]2(C)[C@H](C)CC[C@]3(CCC(=O)[C@H]32)[C@@H](C)[C@@H]1O.[I-]: > 64 µg/mL
3) C=C[C@]1(C)C[C@@H](OC(=O)CSc2cc[n+](CC(=O)N3CCCCC3)cc2)[C@]2(C)[C@H](C)CC[C@]3(CCC(=O)[C@H]32)[C@@H](C)[C@@H]1O.[I-]: > 64 µg/mL

====

Measured MIC by item
system: Proteus; test: Antibacterial activity against Proteus CMCC (B) 49027 assessed as inhibition of bacterial growth measured after 24 hrs by MH broth based assay; assay type: functional
Reported Metric: MIC (µg/mL)

1) C=C[C@]1(C)C[C@@H](OC(=O)CSc2cc[n+](CC(=O)NCc3ccccc3C)cc2)[C@]2(C)[C@H](C)CC[C@]3(CCC(=O)[C@H]32)[C@@H](C)[C@@H]1O.[I-]: 64
2) C=C[C@]1(C)C[C@@H](OC(=O)CSc2cc[n+](C(C)C)cc2)[C@]2(C)[C@H](C)CC[C@]3(CCC(=O)[C@H]32)[C@@H](C)[C@@H]1O.[I-]: 64

====

system: Proteus; experiment: Antibacterial activity against Proteus CMCC (B) 49027 assessed as inhibition of bacterial growth measured after 24 hrs by MH broth based assay; assay type: functional
Measured MIC by item
Reported Metric: MIC

1) C=C[C@]1(C)C[C@@H](OC(=O)CSc2cc[n+](CCCCCCCCCCC(=O)O)cc2)[C@]2(C)[C@H](C)CC[C@]3(CCC(=O)[C@H]32)[C@@H](C)[C@@H]1O.[I-]: 64 µg/mL
2) C=C[C@]1(C)C[C@@H](OC(=O)CSc2cc[n+](Cc3ccc(C)cc3)cc2)[C@]2(C)[C@H](C)CC[C@]3(CCC(=O)[C@H]32)[C@@H](C)[C@@H]1O.[I-]: > 64 µg/mL
3) C=C[C@]1(C)C[C@@H](OC(=O)CSc2cc[n+](CCCCCC(=O)O)cc2)[C@]2(C)[C@H](C)CC[C@]3(CCC(=O)[C@H]32)[C@@H](C)[C@@H]1O.[I-]: > 64 µg/mL
4) C=C[C@]1(C)C[C@@H](OC(=O)CSc2cc[n+](CCCCCCC)cc2)[C@]2(C)[C@H](C)CC[C@]3(CCC(=O)[C@H]32)[C@@H](C)[C@@H]1O.[I-]: 32 µg/mL
5) C=C[C@]1(C)C[C@@H](OC(=O)CSc2cc[n+](CCCCCCCC(=O)O)cc2)[C@]2(C)[C@H](C)CC[C@]3(CCC(=O)[C@H]32)[C@@H](C)[C@@H]1O.[I-]: > 64 µg/mL
6) C=C[C@]1(C)C[C@@H](OC(=O)CSc2cc[n+](CC(C)C)cc2)[C@]2(C)[C@H](C)CC[C@]3(CCC(=O)[C@H]32)[C@@H](C)[C@@H]1O.[I-]: > 64 µg/mL
7) C=C[C@]1(C)C[C@@H](OC(=O)CSCCN(CC)CC)[C@]2(C)[C@H](C)CC[C@]3(CCC(=O)[C@H]32)[C@@H](C)[C@@H]1O [TIAMULIN]: > 64 µg/mL
8) C=C[C@]1(C)C[C@@H](OC(=O)CSc2cc[n+](CC(=O)N3CCCC3)cc2)[C@]2(C)[C@H](C)CC[C@]3(CCC(=O)[C@H]32)[C@@H](C)[C@@H]1O.[I-]: > 64 µg/mL
9) C=C[C@]1(C)C[C@@H](OC(=O)CSc2cc[n+](CC(=O)O)cc2)[C@]2(C)[C@H](C)CC[C@]3(CCC(=O)[C@H]32)[C@@H](C)[C@@H]1O.[I-]: > 64 µg/mL
10) C=C[C@]1(C)C[C@@H](OC(=O)CSc2cc[n+](Cc3cccc(NC(=O)OC(C)(C)C)c3)cc2)[C@]2(C)[C@H](C)CC[C@]3(CCC(=O)[C@H]32)[C@@H](C)[C@@H]1O.[I-]: > 64 µg/mL
11) C#CCC[n+]1ccc(SCC(=O)O[C@@H]2C[C@@](C)(C=C)[C@@H](O)[C@H](C)[C@]34CCC(=O)[C@H]3[C@@]2(C)[C@H](C)CC4)cc1.[I-]: > 64 µg/mL
12) C=C[C@]1(C)C[C@@H](OC(=O)CSc2cc[n+](CCCCCCCCCCCC)cc2)[C@]2(C)[C@H](C)CC[C@]3(CCC(=O)[C@H]32)[C@@H](C)[C@@H]1O.[I-]: 64 µg/mL
13) C=C[C@]1(C)C[C@@H](OC(=O)CSc2cc[n+](CC(=O)N3CCOCC3)cc2)[C@]2(C)[C@H](C)CC[C@]3(CCC(=O)[C@H]32)[C@@H](C)[C@@H]1O.[I-]: > 64 µg/mL
14) C=C[C@]1(C)C[C@@H](OC(=O)CSc2cc[n+](CCCCCCCCCC)cc2)[C@]2(C)[C@H](C)CC[C@]3(CCC(=O)[C@H]32)[C@@H](C)[C@@H]1O.[I-]: 64 µg/mL
15) C=C[C@]1(C)C[C@@H](OC(=O)CSc2cc[n+](CCCO)cc2)[C@]2(C)[C@H](C)CC[C@]3(CCC(=O)[C@H]32)[C@@H](C)[C@@H]1O.[I-]: > 64 µg/mL
16) C=C[C@]1(C)C[C@@H](OC(=O)CSc2cc[n+](CCCCC(=O)O)cc2)[C@]2(C)[C@H](C)CC[C@]3(CCC(=O)[C@H]32)[C@@H](C)[C@@H]1O.[I-]: > 64 µg/mL
17) CN[C@H](CC(C)C)C(=O)N[C@H]1C(=O)N[C@@H](CC(N)=O)C(=O)N[C@H]2C(=O)N[C@H]3C(=O)N[C@H](C(=O)N[C@H](C(=O)O)c4cc(O)cc(O)c4-c4cc3ccc4O)[C@H](O)c3ccc(c(Cl)c3)Oc3cc2cc(c3O[C@@H]2O[C@H](CO)[C@@H](O)[C@H](O)[C@H]2O[C@H]2C[C@](C)(N)[C@H](O)[C@H](C)O2)Oc2ccc(cc2Cl)[C@H]1O [VANCOMYCIN]: > 64 µg/mL
18) C=C[C@]1(C)C[C@@H](OC(=O)CSc2cc[n+](CCO)cc2)[C@]2(C)[C@H](C)CC[C@]3(CCC(=O)[C@H]32)[C@@H](C)[C@@H]1O.[I-]: 64 µg/mL
19) C=C[C@]1(C)C[C@@H](OC(=O)CSc2cc[n+](CCCCCCC(=O)O)cc2)[C@]2(C)[C@H](C)CC[C@]3(CCC(=O)[C@H]32)[C@@H](C)[C@@H]1O.[I-]: 64 µg/mL
20) C=C[C@]1(C)C[C@@H](OC(=O)CSc2cc[n+](CCCCCCCCCC(=O)O)cc2)[C@]2(C)[C@H](C)CC[C@]3(CCC(=O)[C@H]32)[C@@H](C)[C@@H]1O.[I-]: > 64 µg/mL
